The origin of these recorded values is patent US4093648A.

Could you please report measured LD50 for the items listed next?
Assay: LD50 determination, intraperitoneal, rats
Conditions: rat, in vivo, ip; intraperitoneally to rats
One number for each entry, in mg/kg.

Field: example entries. Status: answers known.
>  <chemical structure>
CCC(=O)c1cccc(C(=O)Nc2cccc(Cl)c2)c1O

>  <assay value>
2700

$$$$
>  <chemical structure>
CCOc1ccc(NC(=O)c2cccc(C(=O)CC)c2O)cc1

>  <assay value>
3000

$$$$

# ---- query compound ----
Record `CCC(=O)c1cccc(C(=O)Nc2ccccc2Cl)c1O` , field LD50: 3000

---

Test: LD50 determination, intraperitoneal, rats
Conditions: rat, in vivo, ip
metric name: LD50
In your response, the unit should come after the numeric value.

Entry `CCC(=O)c1cccc(C(=O)O)c1OCCN(CC)CC` , LD50 reported as 3000 mg/kg
